Parameter DR/DR AA: see the listing below.
assay: Probe fluorescence ratio response to arachidonic acid relative to ADIFAB2; assay type: binding; conditions: arachidonic acid; response relative to ADIFAB2
Answer with a number only.

Solved cases below.
1) 21Y, 72A (protein, listed as Rattus norvegicus, PEPTIDE (1)...(131) wild-type rat intestinal fatty acid binding protein) AFDGTWKVDRNENYEKFMEKYGINVVKRKLGAHDNLKLTITQEGNKFTVKESSNFRNIDVVFELGVDFAYSAADGTELTGTWTMEGNKLVGKFKRVDNGKELIAVREISGNELIQTYTYEGVEAKRIFKKE ... 2.378
2) 17E, 72A (protein, listed as Rattus norvegicus, PEPTIDE (1)...(131) wild-type rat intestinal fatty acid binding protein) AFDGTWKVDRNENYEKEMEKMGINVVKRKLGAHDNLKLTITQEGNKFTVKESSNFRNIDVVFELGVDFAYSAADGTELTGTWTMEGNKLVGKFKRVDNGKELIAVREISGNELIQTYTYEGVEAKRIFKKE ... 0.80
3) 119T, 72A (protein, listed as Rattus norvegicus, PEPTIDE (1)...(131) wild-type rat intestinal fatty acid binding protein) AFDGTWKVDRNENYEKFMEKMGINVVKRKLGAHDNLKLTITQEGNKFTVKESSNFRNIDVVFELGVDFAYSAADGTELTGTWTMEGNKLVGKFKRVDNGKELIAVREISGNELIQTYTTEGVEAKRIFKKE ... 1.22

Exercise: Recorded DR/DR AA of 17R, 72A (protein, listed as Rattus norvegicus, PEPTIDE (1)...(131) wild-type rat intestinal fatty acid binding protein) AFDGTWKVDRNENYEKRMEKMGINVVKRKLGAHDNLKLTITQEGNKFTVKESSNFRNIDVVFELGVDFAYSAADGTELTGTWTMEGNKLVGKFKRVDNGKELIAVREISGNELIQTYTYEGVEAKRIFKKE , please.
Key: 0.43

Exercise: Can you look up the measured DR/DR AA of 36R, 72A (protein, listed as Rattus norvegicus, PEPTIDE (1)...(131) wild-type rat intestinal fatty acid binding protein) AFDGTWKVDRNENYEKFMEKMGINVVKRKLGAHDNRKLTITQEGNKFTVKESSNFRNIDVVFELGVDFAYSAADGTELTGTWTMEGNKLVGKFKRVDNGKELIAVREISGNELIQTYTYEGVEAKRIFKKE for me?
Key: 1.04

Exercise: Please look up its DR/DR AA: 102H, 72A (protein, listed as Rattus norvegicus, PEPTIDE (1)...(131) wild-type rat intestinal fatty acid binding protein) AFDGTWKVDRNENYEKFMEKMGINVVKRKLGAHDNLKLTITQEGNKFTVKESSNFRNIDVVFELGVDFAYSAADGTELTGTWTMEGNKLVGKFKRVDNGKEHIAVREISGNELIQTYTYEGVEAKRIFKKE
Key: 0.52
